Each entry below carries its reported permeability (%).
Settings: not told
Peptide text beside a SMILES is read from it.
Entry format: amount then unit.

Check out these entries, answers already filled in.
N[C@@H](Cc1c[nH]c2ccccc12)C(=O)O | 99%
C[C@H](N)C(=O)O | 100%
C[C@H](N)C(=O)N[C@@H](CS)C(=O)O [AlaCys, L-alanyl-L-cysteine] (H-Ala-Cys-OH) | 99%
N[C@@H](Cc1ccccc1)C(=O)O | 100%
Cl.N[C@@H](Cc1c[nH]cn1)C(=O)O [L-His, L-histidine hydrochloride, reference compound] | 95%

Switching to the query record.
input: GET /values?readout=permeability (%)&item= "N[C@@H](CS)C(=O)O"
output: 100%
